EXPERIMENT DESCRIPTION: Use of additives to improve separation of Nd/Dy mixture by precipitation with L5 (Example 18)
Type: physicochemical
CONDITION DESCRIPTION: additive 100 mM; 11 mM L5
RECORDED METRIC: Supernatant concentration [mM] Dy (mM)
Numbers only here, please. The scale is mM.

INPUT: Returns the measured Supernatant concentration [mM] Dy for the input compound. Input: N#C[S-].[Na+] [thiocyanate]
OUTPUT: 0.31

INPUT: Quick one: O=[N+]([O-])O [nitrate]
OUTPUT: 0.36

INPUT: Record: CC(=O)O [acetate]
OUTPUT: 3.74

INPUT: O=CO [formate] ?
OUTPUT: 1.09

INPUT: And then O=S(=O)(O)O [sulfate] , what is it?
OUTPUT: 0.34

INPUT: Now try Cl [chloride] .
OUTPUT: 0.29

INPUT: Another compound: NCC(=O)O
OUTPUT: 1.99

INPUT: How about this compound: O=C(O)c1ccccc1
OUTPUT: 4.03
